- ASSAY_DETAILS: Solubility at room temperature (HPLC isocratic method)
- Assay type: physicochemical
- TEST_CONTEXT: organic solvent or mixture, thermodynamic from solid; IPA, room temperature; read-out: Solubility
ENDPOINT_LABEL: solubility

Which solubility value is on record for CNC(=O)N1CCN(Cc2ccnc(Nc3ncc(C#N)s3)c2)CC1.CS(=O)(=O)O [mesylate salt (Form A)] ?
640 µg/mL

====

- ASSAY_DETAILS: Solubility at room temperature (HPLC isocratic method)
- Format: physicochemical
- TEST_CONTEXT: aqueous with cosolvent or surfactant or cyclodextrin, thermodynamic from solid; 15% HP-βCD, pH adjusted with 0.1 N HCl to about pH 3, room temperature; read-out: Solubility
ENDPOINT_LABEL: solubility (mg/mL)
Dear colleague, please return just the value in mg/mL, with no unit written.

Which solubility value is on record for CNC(=O)N1CCN(Cc2ccnc(Nc3ncc(C#N)s3)c2)CC1.CS(=O)(=O)O [mesylate salt (Form A)] ?
35.3
